# Test system: NCI-H1373 cells
# PROTOCOL: Anchorage-independent cell proliferation inhibitory action, NCI-H1373 spheroid three-dimensional culture
# Assay type: cell-based, Human
# CONDITION SET: Homo sapiens, NCI-H1373, 144 h, read-out: IC50 (anchorage-independent cell proliferation inhibition)
READOUT NAME: IC50 (nM)
Just the number in nM, nothing appended.

Prompt: Reported IC50, molecule "C=CC(=O)N1CC2(CCN(c3nc(OC[C@@H]4CCCN4C)nc4c(OCC)c(-c5c(C)ccc6[nH]ncc56)c(C=C)cc34)CC2)C1" : ____
Response: 10

Prompt: Please give the result for "C=CC(=O)N1CC2(CCN(c3nc(OC4CCN(CCOC)CC4)nc4c(OCC)c(-c5c(C)ccc6[nH]ncc56)c(C=C)cc34)CC2)C1" too.
Response: 13

Prompt: Please give the result for "C=CC(=O)N1CC2(CCN(c3nc(OC[C@@H]4CCCN4C)nc4c(OCC(F)F)c(-c5c(C)ccc6[nH]ncc56)c(C=C)cc34)CC2)C1" too.
Response: 8.8
